Origin of measurements: ChEMBL document CHEMBL4616721

Answer each item with its documented inhibition.
biological target: Adenosine receptor A2a (Homo sapiens, UniProt P29274); assay: Displacement [3H]ZM241385 from adenosine A2A receptor in human HeLa cell membranes at 1 uM incubated for 30 mins by scintillation counting method relative to control
Sequence (P29274 whole entry): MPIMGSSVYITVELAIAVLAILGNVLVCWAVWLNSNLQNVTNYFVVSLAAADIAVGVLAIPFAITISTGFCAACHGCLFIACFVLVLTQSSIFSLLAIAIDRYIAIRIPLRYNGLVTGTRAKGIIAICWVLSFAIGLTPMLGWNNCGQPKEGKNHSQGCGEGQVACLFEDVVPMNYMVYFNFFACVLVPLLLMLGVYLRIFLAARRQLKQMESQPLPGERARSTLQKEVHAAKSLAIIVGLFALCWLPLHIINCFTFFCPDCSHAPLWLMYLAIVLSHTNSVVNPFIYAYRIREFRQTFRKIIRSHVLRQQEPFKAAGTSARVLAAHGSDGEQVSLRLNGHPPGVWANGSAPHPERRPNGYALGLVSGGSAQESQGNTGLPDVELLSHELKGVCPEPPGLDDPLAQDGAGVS
One number for each entry, in %.

CCOC(=O)C1=C(C)Nc2nc3ccccc3n2C1c1cnsc1 (racemic) ... 11
CCOC(=O)C1=C(C)Nc2nc3ccccc3n2C1C1CCCC1 (racemic) ... 10
CC1=C(C(=O)OC(C)C)C(c2ccco2)n2c(nc3ccccc32)N1 (racemic) ... 25

Dear colleague, could you please provide inhibition for the compounds listed below?
1. CC1=C(C(=O)OC(C)C)C(c2ccc[nH]2)n2c(nc3ccccc32)N1 (racemic)
2. CC1=C(C(=O)OC(C)C)C(c2cc[nH]c2)n2c(nc3ccccc32)N1 (racemic)
3. CCOC(=O)C1=C(C)Nc2nc3ccccc3n2C1c1c[nH]cn1 (racemic)
4. CCOC(=O)C1=C(C)Nc2nc3ccccc3n2C1c1cc[nH]c1 (racemic)
5. CC1=C(C(=O)OC(C)C)C(c2cocn2)n2c(nc3ccccc32)N1 (racemic)
6. CC1=C(C(=O)OC(C)C)C(c2c[nH]cn2)n2c(nc3ccccc32)N1 (racemic)
7. CCOC(=O)C1=C(C)Nc2nc3ccccc3n2C1c1cc[nH]n1 (racemic)

Response:
[19, 1, 16, 7, 19, 4, 11]
